Below is a list of entries, each paired with its recorded pest or weed control at 250 g/ha value.
# Test system: Alopecurus myosuroides (ALOMY)
# TEST DESCRIPTION: Glasshouse assay for herbicidal activity, pre-/post-emergence (percentage phytotoxicity)
# Type: in vivo
# CONDITIONS USED: Alopecurus myosuroides, 360 h; Rate 250 g/ha; post-emergence; visual assessment 15 DAA; 100%=total damage, 0%=no damage; read-out: Post-emergence herbicidal activity (percentage phytotoxicity), ALOMY POST
MEASURED ATTRIBUTE: pest or weed control at 250 g/ha (%)

| COMPOUND | STUDY TARGET | MEASURED ATTRIBUTE | NUMERIC READOUT |
| --- | --- | --- | --- |
| Cc1cc(C)c(C2C(=O)CC(CCNC(=O)NC(=O)c3ccccc3C)C2=O)c(C)c1 (stereo not shown) | Alopecurus myosuroides (ALOMY) | pest or weed control at 250 g/ha | 100 |
| Cc1cc(C)c(C2C(=O)CC(CCNC(=O)NC(=O)c3ccc(C(F)(F)F)c(F)c3)C2=O)c(C)c1 (stereo not shown) | Alopecurus myosuroides (ALOMY) | pest or weed control at 250 g/ha | 40 |
| Cc1cc(C)c(C2C(=O)CC(CCNC(=S)Nc3ccccc3)C2=O)c(C)c1 (stereo not shown) | Alopecurus myosuroides (ALOMY) | pest or weed control at 250 g/ha | 20 |
| Cc1cc(-c2ncc(C#N)cn2)cc(C)c1C1C(=O)CC(CCNC(=O)C2=NOC(C)(C)C2)C1=O (stereo not shown) | Alopecurus myosuroides (ALOMY) | pest or weed control at 250 g/ha | 90 |
| CC(=NOCc1ccccc1)C(=O)NCCC1CC(=O)C(c2c(C)cc(C)cc2C)C1=O (stereo not shown) | Alopecurus myosuroides (ALOMY) | pest or weed control at 250 g/ha | 0 |
| CC#Cc1cc(C)c(C2C(=O)CC(CCNc3ccc(C#N)cn3)C2=O)c(C)c1 (stereo not shown) | Alopecurus myosuroides (ALOMY) | pest or weed control at 250 g/ha | 100 |
| CC#Cc1cc(C)c(C2C(=O)CC(CCNc3ccc(C(F)(F)F)cn3)C2=O)c(C)c1 (stereo not shown) | Alopecurus myosuroides (ALOMY) | pest or weed control at 250 g/ha | 100 |
| Cc1cc(C)c(C2C(=O)CC(CCN(C)C(=O)Nc3ccccn3)C2=O)c(C)c1 (stereo not shown) | Alopecurus myosuroides (ALOMY) | pest or weed control at 250 g/ha | 70 |
| Cc1cc(C)c(C2C(=O)CC(CCNS(=O)(=O)c3ccc(C(F)(F)F)cc3)C2=O)c(C)c1 (stereo not shown) | Alopecurus myosuroides (ALOMY) | pest or weed control at 250 g/ha | 50 |
| CNC(=O)NCCC1CC(=O)C(c2c(C)cc(C)cc2C)C1=O (stereo not shown) | Alopecurus myosuroides (ALOMY) | pest or weed control at 250 g/ha | 60 |
| Cc1cc(-c2ncc(F)cc2F)cc(C)c1C1C(=O)CC(CCNC(=O)C2=NOC(C)(C)C2)C1=O (stereo not shown) | Alopecurus myosuroides (ALOMY) | pest or weed control at 250 g/ha | 100 |
| Cc1cc(C)c(C2C(=O)CC(CCNC(=O)C3=NOC(C)(C)C3)C2=O)c(C)c1 (stereo not shown) | Alopecurus myosuroides (ALOMY) | pest or weed control at 250 g/ha | 100 |
| Cc1cc(C)c(C2C(=O)CC(CCNC(=S)Nc3ccccc3F)C2=O)c(C)c1 (stereo not shown) | Alopecurus myosuroides (ALOMY) | pest or weed control at 250 g/ha | 0 |
| Cc1cc(C)c(C2C(=O)CC(CCNC(=S)NC(=O)c3ccccc3)C2=O)c(C)c1 (stereo not shown) | Alopecurus myosuroides (ALOMY) | pest or weed control at 250 g/ha | 80 |
| Cc1cc(C)c(C2C(=O)CC(CCNc3ncc(C(F)(F)F)cc3F)C2=O)c(C)c1 (stereo not shown) | Alopecurus myosuroides (ALOMY) | pest or weed control at 250 g/ha | 90 |
| Cc1cc(C)c(C2C(=O)CC(CCNC(=O)NC(=O)c3ccc(Cl)c(Cl)c3)C2=O)c(C)c1 (stereo not shown) | Alopecurus myosuroides (ALOMY) | pest or weed control at 250 g/ha | 50 |
